Reported values of IC50 for individual entries
Molecular target: DRB1*0701 (DR7) (Homo sapiens, UniProt P01903+P01911, A100R/A102G/A103Q/D57E/D86V/E43K/F76Y/K127E/L162R/M171V/P40G/Q125H/Q99D/R33Q/R42Y/R54Q/S133A/S66F/T210M/V115G/Y107V/Y59L/Y89S)
Construct: Epstein-Barr virus (EBV) transformed homozygous cell lines were used as sources; endogenous in cells; host or cells: PITOUT (EBV-transformed homozygous B cell line)
Test: biochemical
Format: binding
Settings: Binding Capacity (IC 50% nM) DR1,4,7 DR7

Example entries begin here.
CC[C@H](C)[C@H](N)C(=O)N1CCC[C@H]1C(=O)N[C@@H](CCC(N)=O)C(=O)N[C@@H](CCC(=O)O)C(=O)N[C@@H](Cc1c[nH]c2ccccc12)C(=O)N[C@@H](CCCCN)C(=O)N1CCC[C@H]1C(=O)N[C@@H](C)C(=O)N[C@H](C(=O)N[C@H](C(=O)N[C@H](C(=O)N[C@@H](CCCCN)C(=O)N[C@H](C(=O)N[C@@H](CC(C)C)C(=O)N1CCC[C@H]1C(=O)N[C@@H](C)C(=O)O)C(C)C)C(C)C)[C@@H](C)O)[C@@H](C)CC [Peptide 1136.21]: < 1000 nM
CC(C)C[C@H](NC(=O)[C@H](CC(C)C)NC(=O)CNC(=O)[C@H](C)NC(=O)[C@H](CC(C)C)NC(=O)[C@@H](NC(=O)[C@H](CO)NC(=O)[C@@H](NC(=O)[C@H](C)NC(=O)[C@H](CC(C)C)NC(=O)[C@H](CCCCN)NC(=O)[C@H](Cc1ccc(O)cc1)NC(=O)[C@H](CCCCN)NC(=O)[C@H](CO)NC(=O)[C@@H](N)CCCCN)[C@@H](C)O)C(C)C)C(=O)O [Peptide 1188.16]: < 1000 nM

Read the next record carefully.
The measured IC50 associated with CC(C)C[C@H](NC(=O)CNC(=O)[C@H](C)NC(=O)[C@@H](N)CC(C)C)C(=O)N[C@@H](CC(C)C)C(=O)NCC(=O)N[C@@H](CC(N)=O)C(=O)N[C@H](C(=O)N[C@@H](CO)C(=O)N[C@H](C(=O)N[C@H](C(=O)N[C@@H](CC(C)C)C(=O)N[C@@H](CC(C)C)C(=O)NCC(=O)NCC(=O)O)C(C)C)[C@@H](C)O)C(C)C [Peptide F107.10] reads < 1000 nM

---

Molecular target: DRB1*0405 (DR4w15) (Homo sapiens, UniProt P01903+P01911, A100R/A169T/D86S/F76Y/I96L/K127E/L162R/M171V/N62H/P40V/Q125Y/R42H/S133A/S149N/S66Y/V115G/V209L/W38E)
Construct: Epstein-Barr virus (EBV) transformed homozygous cell lines were used as sources; endogenous in cells; host or cells: KT3 (EBV-transformed homozygous B cell line)
Experiment: biochemical
Format: binding
Settings: Binding Capacity (IC 50% nM) Other Alleles DR4w15
property: IC50

CC[C@H](C)[C@H](NC(=O)[C@H](CC(C)C)NC(=O)[C@H](Cc1ccccc1)NC(=O)[C@H](CS)NC(=O)[C@@H](NC(=O)[C@H](C)NC(=O)[C@@H](N)Cc1ccccc1)[C@@H](C)O)C(=O)N1CCC[C@H]1C(=O)N[C@@H](CC(C)C)C(=O)N[C@H](C(=O)N[C@@H](CO)C(=O)N[C@@H](CCC(N)=O)C(=O)N[C@@H](Cc1ccccc1)C(=O)N[C@@H](Cc1ccccc1)C(=O)N[C@@H](CC(C)C)C(=O)N1CCC[C@H]1C(=O)O)[C@@H](C)O [Peptide 1136.14]: < 1000 nM
CC(C)C[C@H](NC(=O)[C@H](CC(C)C)NC(=O)CNC(=O)[C@H](C)NC(=O)[C@H](CC(C)C)NC(=O)[C@@H](NC(=O)[C@H](CO)NC(=O)[C@@H](NC(=O)[C@H](C)NC(=O)[C@H](CC(C)C)NC(=O)[C@H](CCCCN)NC(=O)[C@H](Cc1ccc(O)cc1)NC(=O)[C@H](CCCCN)NC(=O)[C@H](CO)NC(=O)[C@@H](N)CCCCN)[C@@H](C)O)C(C)C)C(=O)O [Peptide 1188.16]: < 1000 nM

The measured IC50 associated with CC(C)C[C@H](NC(=O)[C@H](Cc1c[nH]c2ccccc12)NC(=O)[C@@H](NC(=O)[C@H](Cc1ccccc1)NC(=O)[C@@H](NC(=O)[C@@H]1CCCN1C(=O)[C@H](CC(C)C)NC(=O)[C@H](C)NC(=O)[C@@H]1CCCN1C(=O)[C@H](CC(C)C)NC(=O)[C@H](Cc1ccccc1)NC(=O)[C@H](Cc1ccccc1)NC(=O)[C@H](CCC(N)=O)NC(=O)[C@H](CO)NC(=O)[C@@H](NC(=O)[C@@H](N)CC(C)C)[C@@H](C)O)C(C)C)[C@@H](C)O)C(=O)O [Peptide 1136.16] reads < 1000 nM

---

Target: DRB1*1201 (DR5w12) (Homo sapiens, UniProt P01903+P01911, A100R/A169T/D57E/D86V/F55L/H45Y/K41T/L162R/M171V/P40S/Q125H/Q178H/Q39Y/Q99D/R42G/S66L/T262R/V114A/V67L/W38E/Y59H/Y61H/Y89S)
Construct: Epstein-Barr virus (EBV) transformed homozygous cell lines were used as sources; endogenous in cells; host or cells: Herluf (EBV-transformed homozygous B cell line)
Experiment: biochemical
Format: binding
Conditions: Binding Capacity (IC50% nM) DR5w12
No end group written: not given here.
property: IC50

The measured IC50 associated with RVYQEPQVSPPQRAET [Peptide 1136.59.01a] reads > 10000 nM

The measured IC50 associated with LFHYYFLSEKAPGSTV [Peptide 1136.04] reads > 10000 nM

The measured IC50 associated with GPPTALRSFGFAFGYM [Peptide 1136.29] reads 1000 nM

The measured IC50 associated with LWWSTMYLTHHYFVDL [Peptide 1136.46] reads > 10000 nM

---

Reported values of IC50 for individual entries
Molecular target: DRB1*1302 (DR6w19) (Homo sapiens, UniProt P01903+P01911, A100E/A169T/K41T/L162R/M171V/P40S/Q125H/Q178H/Q39Y/Q99D/R42S/S66N/T262R/V115G/W38E/Y61H)
Construct: Epstein-Barr virus (EBV) transformed homozygous cell lines were used as sources; the source of Class II molecules the EBV transformed homozygous cell line H0301; endogenous in cells; host or cells: H0301 (EBV-transformed homozygous B cell line)
Assay: biochemical
Format: binding
Conditions: Binding Capacity (IC 50% nM) Other Alleles DR6w19

CC(C)[C@H](NC(=O)[C@H](Cc1ccccc1)NC(=O)[C@@H](N)CCCCN)C(=O)N[C@H](C(=O)N1CCC[C@H]1C(=O)NCC(=O)N[C@@H](C)C(=O)N[C@@H](C)C(=O)N[C@H](C(=O)N1CCC[C@H]1C(=O)N[C@@H](Cc1ccc(O)cc1)C(=O)N[C@@H](C)C(=O)NCC(=O)N[C@@H](CCC(=O)O)C(=O)N1CCC[C@H]1C(=O)O)[C@@H](C)O)C(C)C [Peptide F107.17]: < 1000 nM

Read the next record carefully.
The measured IC50 associated with CC(C)C[C@H](NC(=O)CNC(=O)[C@H](C)NC(=O)[C@H](CC(C)C)NC(=O)[C@@H](NC(=O)[C@H](CO)NC(=O)[C@@H](NC(=O)[C@H](C)NC(=O)[C@H](CC(C)C)NC(=O)[C@H](CCCCN)NC(=O)[C@H](Cc1ccc(O)cc1)NC(=O)[C@@H](N)CCCCN)[C@@H](C)O)C(C)C)C(=O)N[C@@H](CC(C)C)C(=O)NCC(=O)N[C@@H](CC(N)=O)C(=O)O [Peptide F107.09] reads < 1000 nM

---

Target: DRB5*0101 (DR2w2a) (Homo sapiens, UniProt P01903+Q30154)
Construct: Epstein-Barr virus (EBV) transformed homozygous cell lines were used as sources; endogenous in cells; host or cells: GM3107 (EBV-transformed homozygous B cell line)
Test: biochemical
Type: binding
Settings: read-out: Binding Capacity (IC 50% nM) Other Alleles DR2w2a
No end group written: not given here.
property: IC50

Example entries begin here.
QEIDPLSYNYIPVNSN [Peptide 1136.55]: > 1000 nM
LAAIIFLFGPPTALRS [Peptide 1136.28]: > 1000 nM
LWWSTMYLTHHYFVDL [Peptide 1136.46]: > 1000 nM

Read the next record carefully.
Here WLFPRFKFVWVTYASW [Peptide 1136.44.01] was tested on DRB5*0101 (DR2w2a) (Homo sapiens, UniProt P01903+Q30154), and its IC50 came to > 1000 nM
